Measured IC50, listed per entry.
# system.tested: interaction between GST-MAGEA11 MHD and FAM-PCF11_4 peptide (MAGE-A11:PCF11) (Homo sapiens (Human))
# Sequence (P43364 218-429): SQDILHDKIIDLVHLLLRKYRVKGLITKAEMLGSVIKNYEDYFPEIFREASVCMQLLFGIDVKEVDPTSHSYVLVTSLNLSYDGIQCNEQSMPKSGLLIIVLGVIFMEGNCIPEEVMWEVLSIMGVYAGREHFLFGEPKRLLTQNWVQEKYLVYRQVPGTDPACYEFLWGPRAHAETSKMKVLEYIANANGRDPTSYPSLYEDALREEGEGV
# assay: TR-FRET dose response competition assay for disruption of MAGE-A11:PCF11 binding
# measurement.context: Table 8, representative compounds; read-out: TR-FRET IC50
Hi! Could you send only the number? It should be in µM, unit omitted.

Here are 5 compounds together with their reported answers.
compound: COc1ccc(F)cc1CNCCCNc1ccnc2cc(-c3ccc(F)cc3)ccc12
IC50 / µM: 38.9
--
compound: CCc1ccc(CNCCCNc2ccnc3cc(Cl)ccc23)cc1
IC50 / µM: 69.9
--
compound: COc1cccc(CNCCCNc2ccnc3cc(Cc4ccccc4)ccc23)c1O
IC50 / µM: 69.9
--
compound: COc1cccc(CNCCC/N=C2/C=CNC3=CC=C(CC(C)C)C=CC32)c1O (stereo not shown)
IC50 / µM: 68.5
--
compound: c1ccc(CCc2ccc3c(NCCCNCc4cccc5c4OCO5)ccnc3c2)cc1
IC50 / µM: 62.3

Lab note: measured IC50 of "c1cc(CNCCCNc2ccnc3cc(CC4CCCC4)ccc23)c2c(c1)OCO2" was 16

----------
# system.tested: MAGE-A11:PCF11 (Homo sapiens (Human))
# assay: TR-FRET single point screening at 15 μM
# Type: binding
# Parameters: unit not given here
# measurement.context: single point TR-FRET screening of quinoline compounds against MAGE-A11:PCF11; 15 μM
assay.metric: TR-FRET signal
Keep the answer to the number alone.

Here are 5 compounds together with their reported answers.
compound: CCCN(CCCNc1ccnc2cc(Cl)ccc12)Cc1cnn(C)c1 [SJ000523009]
TR-FRET signal: 10.06
//
compound: CN(C)c1cccc(Oc2ccc3c(NCCCNCc4ccco4)ccnc3c2)c1 [SJ000311230]
TR-FRET signal: 63.42
//
compound: COc1ccc2nc3cc(Cl)ccc3c(NCCCNCc3ccc(N(C)C)c4ccccc34)c2c1 [SJ000523028]
TR-FRET signal: −1.532
//
compound: CCCN(CCCNc1ccnc2cc(Cl)ccc12)Cc1ccc(C)s1 [SJ000357433]
TR-FRET signal: 16.51
//
compound: FC(F)(F)c1ccc2c(NCCCNCc3cc4ccccc4o3)ccnc2c1 [SJ000521057]
TR-FRET signal: 27.48

Lab note: measured TR-FRET signal of COc1ccccc1Oc1ccc2c(NCCCNCc3ccco3)ccnc2c1 [SJ000311210] was 24.56

Lab note: measured TR-FRET signal of Cn1cc(CN(CCCNc2ccnc3cc(Cl)ccc23)Cc2ccccc2)c2ccccc21 [SJ000520439] was −9.311

Lab note: measured TR-FRET signal of CCCN(CCCNc1ccnc2cc(Cl)ccc12)Cc1cccc(C(F)(F)F)c1 [SJ000523013] was 17.48

Lab note: measured TR-FRET signal of CCCN(CCCNc1ccnc2cc(Cl)ccc12)Cc1ccc(OC(F)(F)F)cc1 [SJ000522999] was 22.74

Lab note: measured TR-FRET signal of CCCCCCN(CCCNc1ccnc2cc(Cl)ccc12)Cc1ccccc1 [SJ000361189] was −40.75

Lab note: measured TR-FRET signal of CCCN(CCCNc1ccnc2cc(C(F)(F)F)ccc12)Cc1cc(F)ccc1OC [SJ000520475] was 15.75

----------
# system.tested: UniProt:P43364
# assay: TR-FRET single point screening at 15 μM
# Assay type: binding
# Set-up: unit not given here
# measurement.context: single point TR-FRET screening of quinoline compounds against MAGE-A11:PCF11; 15 μM
assay.metric: TR-FRET signal
Keep the answer to the number alone.

Lab note: measured TR-FRET signal of "COc1cccc(CN(CCCNc2ccnc3cc(Cl)ccc23)Cc2ccccc2)c1" was −9.05

Lab note: measured TR-FRET signal of "CCCN(CCCNc1ccnc2cc(Cl)ccc12)Cc1cc(OC(F)(F)F)ccc1OC" was 15.67

Lab note: measured TR-FRET signal of "CCCN(CCCNc1ccnc2cc(C(F)(F)F)ccc12)Cc1ccc2ccccc2c1" was 11.39

Lab note: measured TR-FRET signal of "CCOC(=O)c1cnc2ccc(OCC)cc2c1NCCCN1CCOCC1.Cl" was 5.532

Lab note: measured TR-FRET signal of "COC(=O)CCCCCNCCCNc1ccnc2cc(C(F)(F)F)ccc12" was 19.59

Lab note: measured TR-FRET signal of "Cn1ccnc1CN(CCCNc1ccnc2cc(Cl)ccc12)Cc1ccccc1" was 15.36

----------
# system.tested: MAGE-A11:PCF11 (Homo sapiens (Human), UniProt P43364)
# assay: TR-FRET single point screening at 15 μM
# Type: binding
# Set-up: unit not given here
# measurement.context: single point TR-FRET screening at 15 μM against MAGE-A11:PCF11
assay.metric: TR-FRET signal
Keep the answer to the number alone.

molecule: Cc1ccc(C)c(CN2CCC(Nc3ccnc4cc(Cl)ccc34)CC2)c1 [SJ000523106]
system.tested: MAGE-A11:PCF11 (Homo sapiens (Human), UniProt P43364)
TR-FRET signal: 18.68

molecule: Cc1ccc(C)c(N2CCN(c3c(S(=O)(=O)c4ccccc4)cnc4ccc(F)cc34)CC2)c1 [SJ000117083]
system.tested: MAGE-A11:PCF11 (Homo sapiens (Human), UniProt P43364)
TR-FRET signal: −15.38

molecule: Clc1ccc2c(NC3CCN(CC4CC4)CC3)ccnc2c1 [SJ000357481]
system.tested: MAGE-A11:PCF11 (Homo sapiens (Human), UniProt P43364)
TR-FRET signal: 3.973

molecule: Cc1ccc(S(=O)(=O)c2cnc3ccc(F)cc3c2N2CCN(C)CC2)cc1C [SJ000247344]
system.tested: MAGE-A11:PCF11 (Homo sapiens (Human), UniProt P43364)
TR-FRET signal: −7.627

molecule: CCC(CC)CN(CCCCNc1ccnc2cc(Cl)ccc12)Cc1ccccc1 [SJ000361195]
system.tested: MAGE-A11:PCF11 (Homo sapiens (Human), UniProt P43364)
TR-FRET signal: 25.54

molecule: COc1ccc2nc3cc(Cl)ccc3c(NCCCNCc3ccccn3)c2c1 [SJ000523024]
system.tested: MAGE-A11:PCF11 (Homo sapiens (Human), UniProt P43364)
TR-FRET signal: −255.3

Please find the next molecule below.
Lab note: measured TR-FRET signal of CCCCCN(CCCCNc1ccnc2cc(Cl)ccc12)Cc1ccccc1 [SJ000361196] was 19.1

----------
# system.tested: interaction between GST-MAGEA11 MHD and FAM-PCF11_4 peptide (MAGE-A11:PCF11) (Homo sapiens (Human))
# assay: TR-FRET dose response competition assay for disruption of MAGE-A11:PCF11 binding
# measurement.context: Table 8, representative compounds; read-out: TR-FRET IC50
Measured pIC50, listed per entry.
Scale explanation: pIC50 corresponds to minus log10 of a concentration expressed in moles per litre.

Here are 5 molecules together with their reported answers.
smiles.code: COc1ccc(F)cc1CNCCCNc1ccnc2cc(CC3CCCCC3)ccc12
pIC50: 4.58

smiles.code: CCC(CC)c1ccc2c(NCCCNCc3cc(F)ccc3OC)ccnc2c1
pIC50: 4.37

smiles.code: COc1cc(Cc2ccc3c(NCCCNCc4cccc5c4OCO5)ccnc3c2)cc(OC)c1
pIC50: 4.50

smiles.code: FC(F)(F)c1ccc2c(NCCCNCc3ccccc3C(F)(F)F)ccnc2c1
pIC50: 4.16

smiles.code: Fc1cccc(CNCCCNc2ccnc3cc(Cl)ccc23)c1
pIC50: 4.16

Lab note: measured pIC50 of "COc1ccccc1CNCCCNc1ccnc2cc(Cl)ccc12" was 4.16

Lab note: measured pIC50 of "FC(F)(F)c1ccc2c(NCCCNCc3c4ccccc4cc4ccccc34)ccnc2c1" was 4.16

----------
# system.tested: interaction between GST-MAGEA11 MHD and FAM-PCF11_4 peptide (MAGE-A11:PCF11) (Homo sapiens (Human))
# assay: TR-FRET dose response competition assay for disruption of MAGE-A11:PCF11 binding
# measurement.context: Table 8, representative compounds; read-out: TR-FRET IC50
assay.metric: pIC50
Scale explanation: pIC50 corresponds to minus log10 of a concentration expressed in moles per litre.

Here are 10 molecules together with their reported answers.
smiles.code: COc1cccc(CNCCCNc2ccnc3cc(Cc4cc(C)cc(C)c4)ccc23)c1O
pIC50: 4.63
//
smiles.code: Clc1ccc2c(NCCCNCc3ccc(-c4ccccc4)cc3)ccnc2c1
pIC50: 4.46
//
smiles.code: COc1cccc(CNCCCNc2ccnc3cc(Oc4ccccc4)ccc23)c1O
pIC50: 4.16
//
smiles.code: COc1cccc(CNCCCNc2ccnc3cc(CC4CCCCC4)ccc23)c1O
pIC50: 4.53
//
smiles.code: Clc1ccc2c(NCCCNCc3ccccc3)ccnc2c1
pIC50: 4.16
//
smiles.code: Fc1ccccc1CNCCCNc1ccnc2cc(Cl)ccc12
pIC50: 4.16
//
smiles.code: Fc1ccc(Cc2ccc3c(NCCCNCc4cccc5c4OCO5)ccnc3c2)c(Cl)c1
pIC50: 4.69
//
smiles.code: FC(F)(F)c1cccc(Cc2ccc3c(NCCCNCc4cccc5c4OCO5)ccnc3c2)c1
pIC50: 4.89
//
smiles.code: COc1ccc(F)cc1CNCCCNc1ccnc2cc(C3CCCCC3)ccc12
pIC50: 4.62
//
smiles.code: O=[N+]([O-])c1ccc(CNCCCNc2ccnc3cc(Cl)ccc23)cc1O
pIC50: 4.16

Lab note: measured pIC50 of "COc1ccc(F)c(CNCCCNc2ccnc3cc(Cl)ccc23)c1" was 4.16

Lab note: measured pIC50 of "COc1cccc(CNCCCNc2ccnc3cc(Cc4ccc(F)cc4)ccc23)c1O" was 4.36

Lab note: measured pIC50 of "COc1ccc(F)cc1CNCCCNc1ccnc2cc(Oc3ccc(F)cc3)ccc12" was 4.16
